Each entry below lists one item and its recorded pIC50 value.
# System: H358 (non-small cell lung cancer cell line)
# run-description: KRAS Cell Titer Glo (CTG) cell proliferation assay, H358
# Type: cell-based
# measurement-conditions: Homo sapiens, NCI-H358, 168 h; H358 cells, 7-day CTG, geomean IC50
pIC50: −log10 of the molar value.
property-label: pIC50

1) C=C1CN2CCC[C@@]2(COc2nc3c4c(nc(-c5c6c(cc7[nH]ncc57)CCCC6)c(F)c4n2)OC[C@@H]2COCCCN32)C1 | 6.69
2) C=C1CN2CCC[C@@]2(COc2nc3c4c(nc(-c5c(C(F)F)ccc6[nH]ncc56)c(F)c4n2)OC[C@@H]2COCCCN32)C1 | 5.34
3) C=C1CN2CCC[C@@]2(COc2nc3c4c(nc(-c5c(C6CC6)c(Cl)cc6[nH]ncc56)c(F)c4n2)OC[C@@H]2COCC[C@H](C)N32)C1 | 8.10
4) C=C1CN2CCC[C@@]2(COc2nc3c4c(nc(-c5c([C@H]6C[C@H]6C)c(Cl)cc6[nH]ncc56)c(F)c4n2)OC[C@@H]2COCCCN32)C1 (single isomer, unassigned) | 7.27
5) Fc1c(-c2c(C3CC3)c(Cl)cc3[nH]ncc23)nc2c3c(nc(OC[C@]45CCCN4CC4(CC4)C5)nc13)N1CCCOC[C@H]1CO2 | 7.21
6) Fc1c(-c2c(C3CC3)c(Cl)cc3[nH]ncc23)nc2c3c(nc(OC[C@@]45CCCN4C[C@H](F)C5)nc13)N1CCCOC[C@H]1CO2 | 7.14
